Test system: 885724-159-R-J1-PDC complex spheroid viability
experimentalProtocol: Anticancer human tumor 885724-159-R-J1-PDC patient-derived pancreatic adenocarcinoma cell line growth inhibition [GQUAD]
conditionContext: second compound 10 µM; first compound 3.16 µM; hits give low values
testReadout: viability, T/C

Use these answered entries as a reference point.
{"columns": ["compound", "val"],
 "data": [
  ["O=c1[nH]cc(F)c(=O)[nH]1 + CN(C)c1ccc(Nc2c3ccc(NC(=O)CCN4CCCC4)cc3nc3cc(NC(=O)CCN4CCCC4)ccc23)cc1", "87.8%"],
  ["CC(C)(O)C1CCC(Nc2ccc3ncc(-c4cccc(C(F)(F)F)c4)n3n2)CC1 (stereo not given) + Cc1cnc(CNC(=O)c2c(=O)c3ccc(N4CCCN(C)CC4)nc3n3c2sc2ccccc23)cn1", "9.65%"],
  ["COc1ccc([C@@H](O)c2cc(-c3ncnc4cc(N5CCOCC5)ccc34)c(F)cc2Cl)nn1 + Cc1cnc(CNC(=O)c2c(=O)c3ccc(N4CCCN(C)CC4)nc3n3c2sc2ccccc23)cn1", "47.5%"]
]}

IN: # query: viability, T/C | item CC1COCCN1c1cc(C2(S(C)(=N)=O)CC2)nc(-c2ccnc3[nH]ccc23)n1 (stereo not given) + Cc1cnc(CNC(=O)c2c(=O)c3ccc(N4CCCN(C)CC4)nc3n3c2sc2ccccc23)cn1 | system: 885724-159-R-J1-PDC complex spheroid viability
OUT: 78%

IN: What reported viability, T/C corresponds to COc1ncnc(C2CC2)c1-c1ncc2cnn(Cc3ccc(-c4nc(C(F)(F)F)cn4C(C)C)cc3)c2n1 + CN(C)c1ccc(Nc2c3ccc(NC(=O)CCN4CCCC4)cc3nc3cc(NC(=O)CCN4CCCC4)ccc23)cc1 on 885724-159-R-J1-PDC complex spheroid viability?
OUT: 63.1%

----------
Test system: 885724-159-R-J1-PDC complex spheroid viability
experimentalProtocol: Anticancer human tumor 885724-159-R-J1-PDC cell line growth inhibition [GQUAD];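 also: spheroids exposed to agents for seven days before readout; percent of vehicle control viability where 100% = DMSO wells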
conditionContext: second compound 0.1 µM; first compound 3.16 µM; hits give low values
From the text: DNA G-quadruplex Stabilizer Agents in Combinations in Complex Spheroids A high-throughput screen of multi-cell type tumor spheroids was designed to identify active combinations of DNA G-quadruplex stabilizer agents and targeted small molecules. […] Compounds. […] If the clinical Cmax for an agent had not been determined, the highest concentration tested was 10 microM. […]
testReadout: viability, T/C (%)
Give the value, in units of %, as a plain number.

Here's what some known entries look like.
{"columns": ["molecule", "viability, T/C (%)"],
 "data": [
  ["CC(C)(O)C1CCC(Nc2ccc3ncc(-c4cccc(C(F)(F)F)c4)n3n2)CC1 (stereo not drawn) + CN(C)c1ccc(Nc2c3ccc(NC(=O)CCN4CCCC4)cc3nc3cc(NC(=O)CCN4CCCC4)ccc23)cc1", 44.8],
  ["COc1cccc2c1C(=O)c1c(O)c3c(c(O)c1C2=O)CC(O)(C(=O)CO)CC3OC1CC(N)C(O)C(C)O1 (stereo not drawn) + Cc1[nH]c2ccc(F)cc2c1-c1nc2c3cccnc3c3ncccc3c2[nH]1", 41]
]}

Shifting focus to the molecule that follows.
IN: So what does the record say about viability, T/C for COc1ccc([C@@H](O)c2cc(-c3ncnc4cc(N5CCOCC5)ccc34)c(F)cc2Cl)nn1 + CN(C)c1ccc(Nc2c3ccc(NC(=O)CCN4CCCC4)cc3nc3cc(NC(=O)CCN4CCCC4)ccc23)cc1 ?
OUT: 59
